List of logD values.
Test: Partition coefficient (logD7.4)
Conditions: octanol/water, pH 7.4
READOUT: logD

{"MOLECULE": "O=C([O-])Cc1c(O)cccc1Nc1c(Cl)cccc1Cl.[Na+]", "MEASURED RESULT": 1.73}
{"MOLECULE": "Cc1cccc(Nc2ccccc2CC(=O)O)c1Cl", "MEASURED RESULT": 1.59}
{"MOLECULE": "CCc1cccc(CC)c1Nc1ccccc1CC(=O)O", "MEASURED RESULT": 1.91}
{"MOLECULE": "O=C(O)Cc1ccccc1Nc1ccccc1Cl", "MEASURED RESULT": 0.91}
{"MOLECULE": "O=C(O)Cc1ccccc1Nc1cccc(Cl)c1Cl", "MEASURED RESULT": 1.66}
{"MOLECULE": "COc1ccc2c(c1)c(CC(=O)O)c(C)n2C(=O)c1ccc(Cl)cc1", "MEASURED RESULT": 1}
{"MOLECULE": "O=C(O)Cc1cc(O)ccc1Nc1c(Cl)cc(O)cc1Cl [4',5-DIHYDROXY-DICLOFENAC]", "MEASURED RESULT": 0.27}
{"MOLECULE": "O=C([O-])Cc1ccccc1Nc1c(F)cccc1Cl.[Na+]", "MEASURED RESULT": 0.56}
{"MOLECULE": "COc1ccc(Cl)c(Nc2ccccc2CC(=O)O)c1Cl", "MEASURED RESULT": 1.18}
{"MOLECULE": "COc1c(O)cc(Cl)c(Nc2ccccc2CC(=O)O)c1Cl", "MEASURED RESULT": 0.51}
{"MOLECULE": "O=C(O)Cc1cc(O)ccc1Nc1c(Cl)cccc1Cl [5-HYDROXY-DICLOFENAC]", "MEASURED RESULT": 0.76}
{"MOLECULE": "O=C(O)Cc1ccccc1Nc1ccc(Cl)c(Cl)c1", "MEASURED RESULT": 1.8}
{"MOLECULE": "O=C(O)Cc1ccccc1Nc1cc(Cl)ccc1Cl", "MEASURED RESULT": 1.64}
{"MOLECULE": "Cc1c(Cl)cccc1Nc1ccccc1CC(=O)O", "MEASURED RESULT": 1.54}
{"MOLECULE": "O=C([O-])Cc1cc(Cl)ccc1Nc1c(Cl)cccc1Cl.[Na+]", "MEASURED RESULT": 1.97}
